Cited source for all entries: patent US8680110B2

TEST SYSTEM: human P2X4 receptors (Homo sapiens, UniProt Q99571)
Sequence (Q99571 whole entry): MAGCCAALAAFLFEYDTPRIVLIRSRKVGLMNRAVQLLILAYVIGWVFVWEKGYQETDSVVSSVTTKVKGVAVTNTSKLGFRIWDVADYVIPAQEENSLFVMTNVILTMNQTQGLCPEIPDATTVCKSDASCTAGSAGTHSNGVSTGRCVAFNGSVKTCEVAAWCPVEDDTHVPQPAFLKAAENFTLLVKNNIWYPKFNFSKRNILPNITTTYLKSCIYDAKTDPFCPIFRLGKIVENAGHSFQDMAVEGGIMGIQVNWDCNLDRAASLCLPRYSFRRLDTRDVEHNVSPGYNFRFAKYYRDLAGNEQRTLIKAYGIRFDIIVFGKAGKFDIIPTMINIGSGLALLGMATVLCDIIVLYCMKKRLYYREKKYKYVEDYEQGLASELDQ
PROCEDURE TEXT: P2X4 receptor antagonism, intracellular calcium assay (Fura-2 AM) in 1321N1 cells
Format: cell-based
EXPERIMENTAL CONTEXT: 1321N1 cells stably expressing human P2X4 receptors; compound added 15 minutes before ATP; ATP-induced calcium influx; read-out: Inhibition activities (IC50 μM)
Protocol: 1321N1 cells stably expressing human P2X4 receptors were plated in 96-well assay plate and cultured 24 hours at 37° C. in an atmosphere of 5% CO2 for intracellular calcium assay. […] Test compounds were treated to cells 15 minutes before the addition of ATP, and the response to intracellular calcium influx induced by addition of ATP was monitored by a micro plate reader. The fluorescence ratio of excitations wavelengths of 340 nm and 380 nm was used as the index of intracellular calcium change. […]
Where a name gives a salt, the structure may show the parent alone.
ENDPOINT LABEL: IC50 (µM)
Numeric only. Scale: µM

Notebook: pull reported IC50 for human P2X4 receptors (Homo sapiens, UniProt Q99571), entry O=c1nc(-c2cccc(-c3nnn[nH]3)c2)c2ccc3ccccc3c2[nH]1 [Example 2, sodium salt] 0.16
